Parameter log10 solubility kinetic at 24 h: see the listing below.
PROCEDURE_SUMMARY: Kinetic solubility analysis
Assay type: physicochemical
SETUP_CONDITIONS: 1× PBS, 24.2 °C, aqueous buffer, kinetic from dmso stock; pH 7.4 PBS, 1% DMSO, 24-hour incubation at ambient temperature
On a log10 scale: recorded solubility kinetic at 24 h, unit µg/mL.

Query string: Can you share its log10 solubility kinetic at 24 h? I mean this compound: CC(C)COC(=O)C(C)(C)NP(=O)(CO[C@H](C)Cn1cnc2c(N)ncnc21)NC(C)(C)C(=O)OCC(C)C
Result string: 1.73

Query string: // lookup log10 solubility kinetic at 24 h for CC(C)CCCCOC(=O)C(C)(C)NP(=O)(CO[C@H](C)Cn1cnc2c(N)ncnc21)NC(C)(C)C(=O)OCCCCC(C)C
Result string: 0.48

Query string: Given the entry CCCCCCOC(=O)C(C)(C)NP(=O)(CO[C@H](C)Cn1cnc2c(N)ncnc21)NC1(C(=O)OCCCCCC)CC1 (stereo partly drawn) , report its measured log10 solubility kinetic at 24 h.
Result string: 1.69

---
Query string: log10 solubility kinetic at 24 h for C[C@H](Cn1cnc2c(N)ncnc21)OCP(=O)(NC(C)(C)C(=O)OCCC1CCCCC1)NC(C)(C)C(=O)OCCC1CCCCC1 ?
Result string: 1.43

Query string: Recorded log10 solubility kinetic at 24 h for CCC(C)(C)CCOC(=O)C(C)(C)NP(=O)(CO[C@H](C)Cn1cnc2c(N)ncnc21)NC(C)(C)C(=O)OCCC(C)(C)CC , please?
Result string: 1.08

Query string: Please give the measured log10 solubility kinetic at 24 h for this compound: C[C@H](Cn1cnc2c(N)ncnc21)OCP(=O)(NC(C)(C)C(=O)OCCC(C)(C)C)NC(C)(C)C(=O)OCCC(C)(C)C
Result string: 1.70
